We begin with a simple list: items and their reported In vitro activity compared with native peptide (%) vs Glucagon (cAMP EC50).
target: human GCG receptor (human, UniProt P47871 26-477); experiment: cell-based or functional assay
Sequence (P47871 26-477): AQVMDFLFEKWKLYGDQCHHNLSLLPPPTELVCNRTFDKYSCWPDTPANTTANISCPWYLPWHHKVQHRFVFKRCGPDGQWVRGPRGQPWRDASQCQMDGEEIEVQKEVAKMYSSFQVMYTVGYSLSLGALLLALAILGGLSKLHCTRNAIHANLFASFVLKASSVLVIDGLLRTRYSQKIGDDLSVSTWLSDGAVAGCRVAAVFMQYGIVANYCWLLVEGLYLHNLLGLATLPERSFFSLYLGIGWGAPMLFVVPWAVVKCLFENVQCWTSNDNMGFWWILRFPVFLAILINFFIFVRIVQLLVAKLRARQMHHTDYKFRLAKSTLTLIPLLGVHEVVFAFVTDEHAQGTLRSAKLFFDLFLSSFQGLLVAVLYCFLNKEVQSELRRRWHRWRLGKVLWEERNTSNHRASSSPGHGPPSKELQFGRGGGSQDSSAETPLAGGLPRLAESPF
Bridge positions count the residues as written; N and C are the ends. Square brackets hold non-standard residues; d marks the D form. Ends that are not written are not given here. * marks the point of attachment. Acetyl(2-(4-imidazolyl)) = O=C(Cc1c[nH]cn1)*; Aib = CC(C)(N)C(=O)O
EXPERIMENTAL READOUT: In vitro activity compared with native peptide (%) vs Glucagon (cAMP EC50)

# BINDER, ASSAY VALUE
rows = [
    ("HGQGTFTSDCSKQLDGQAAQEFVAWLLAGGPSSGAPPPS [triple agonist of SEQ ID NO: 44]", "< 0.1%"),
    ("H[Aib]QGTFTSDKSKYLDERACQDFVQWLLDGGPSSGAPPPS [triple agonist of SEQ ID NO: 40]", "< 0.1%"),
    ("[Acetyl(2-(4-imidazolyl))]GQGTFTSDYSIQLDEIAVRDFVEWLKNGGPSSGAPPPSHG [triple agonist of SEQ ID NO: 14]", "< 0.1%"),
    ("[Acetyl(2-(4-imidazolyl))][Aib]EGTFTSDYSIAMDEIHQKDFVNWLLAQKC (bridge 16-20) [triple agonist of SEQ ID NO: 90]", "< 0.1%"),
    ("[Acetyl(2-(4-imidazolyl))]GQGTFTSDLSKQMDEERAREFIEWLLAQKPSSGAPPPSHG [triple agonist of SEQ ID NO: 17]", "< 0.1%"),
    ("[Acetyl(2-(4-imidazolyl))][Aib]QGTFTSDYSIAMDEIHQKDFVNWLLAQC (bridge 16-20) [triple agonist of SEQ ID NO: 85]", "< 0.1%"),
    ("H[Aib]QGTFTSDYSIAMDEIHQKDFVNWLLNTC (bridge 16-20) [triple agonist of SEQ ID NO: 57]", "< 0.1%"),
    ("[Acetyl(2-(4-imidazolyl))][Aib]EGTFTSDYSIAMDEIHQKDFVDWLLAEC (bridge 16-20) [triple agonist of SEQ ID NO: 84]", "< 0.1%"),
    ("[Acetyl(2-(4-imidazolyl))][Aib]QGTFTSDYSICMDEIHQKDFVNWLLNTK (bridge 16-20) [triple agonist of SEQ ID NO: 49]", "< 0.1%"),
    ("H[Aib]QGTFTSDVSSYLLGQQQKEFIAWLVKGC [triple agonist of SEQ ID NO: 4]", "< 0.1%"),
]
